experiment: Plasma protein binding in Beagle dog at 0.1 uM incubated for 30 mins; type: ADME, cell-free, Canis lupus familiaris; conditions: read-out: PPB (converted)
readout-name: fraction unbound at 0.5 h, 0.1 µM

>>> quantitative_readout("Cl.c1ccc2c(c1)nnn2CCCCN1CCN(c2nsc3ccccc23)CC1")
0.012

* * *

assay: Apparent oral clearance in Sprague-Dawley rat at 9 mg/kg, po measured for 24 hrs by UPLC/MS/MS analysis; type: ADME, organism-based; conditions: in vivo
readout-name: CL/F (mL/min)

>>> quantitative_readout("Cl.c1ccc2c(c1)nnn2CCCCN1CCN(c2nsc3ccccc23)CC1")
587

* * *

biological target: 5-hydroxytryptamine receptor 2A (Homo sapiens); assay: Displacement of [3H]Ketanserin from recombinant human 5-HT2A receptor extracted from CHO cell membrane incubated for 60 mins by radioligand binding assay
Sequence (P28223 whole entry): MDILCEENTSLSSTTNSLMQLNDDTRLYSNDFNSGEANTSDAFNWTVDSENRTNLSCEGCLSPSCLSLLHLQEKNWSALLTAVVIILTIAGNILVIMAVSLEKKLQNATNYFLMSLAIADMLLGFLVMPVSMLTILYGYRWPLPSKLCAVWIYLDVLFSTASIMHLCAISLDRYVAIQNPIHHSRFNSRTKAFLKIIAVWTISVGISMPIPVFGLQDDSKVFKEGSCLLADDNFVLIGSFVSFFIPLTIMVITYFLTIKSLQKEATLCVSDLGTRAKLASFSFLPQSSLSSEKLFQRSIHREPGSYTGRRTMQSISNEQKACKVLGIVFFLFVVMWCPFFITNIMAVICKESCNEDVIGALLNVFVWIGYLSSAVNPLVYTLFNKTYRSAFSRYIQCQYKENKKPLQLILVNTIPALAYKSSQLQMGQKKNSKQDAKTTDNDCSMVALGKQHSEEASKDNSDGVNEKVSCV
readout-name: Ki (nM)

>>> quantitative_readout("Cl.c1ccc2c(c1)nnn2CCCCN1CCN(c2nsc3ccccc23)CC1")
0.079

* * *

target: UniProt:P35348; test: Displacement of [3H]prazosin from recombinant human alpha 1A adrenoceptor extracted from CHO cell membrane at 10 nM incubated for 60 mins by radioligand binding assay relative to control; format: cell membranes; settings: filed as antagonist
Sequence (P35348 whole entry): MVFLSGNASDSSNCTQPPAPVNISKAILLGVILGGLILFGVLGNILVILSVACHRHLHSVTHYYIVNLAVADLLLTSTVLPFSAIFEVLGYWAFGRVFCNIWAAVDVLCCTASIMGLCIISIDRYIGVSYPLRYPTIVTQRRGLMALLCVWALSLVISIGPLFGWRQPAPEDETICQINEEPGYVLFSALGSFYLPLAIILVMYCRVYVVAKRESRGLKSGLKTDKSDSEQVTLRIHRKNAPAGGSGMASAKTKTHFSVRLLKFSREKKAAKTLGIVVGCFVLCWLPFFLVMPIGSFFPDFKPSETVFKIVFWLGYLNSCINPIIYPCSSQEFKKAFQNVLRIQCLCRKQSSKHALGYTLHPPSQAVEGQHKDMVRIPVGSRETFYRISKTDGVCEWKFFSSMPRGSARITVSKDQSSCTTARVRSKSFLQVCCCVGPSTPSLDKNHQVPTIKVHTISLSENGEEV
readout-name: inhibition (%)

>>> quantitative_readout("Fc1ccc2c(C3CCN(CCCn4nnc5ccccc54)CC3)noc2c1")
87.7
>>> quantitative_readout("c1ccc2c(c1)ncn2CCCN1CCN(c2nsc3ccccc23)CC1")
74.9
>>> quantitative_readout("Fc1ccc2c(C3CCN(CCCCn4nnc5ccccc54)CC3)noc2c1")
100
>>> quantitative_readout("c1ccc2c(c1)nnn2CCCN1CCN(c2nsc3ccccc23)CC1")
82.6
>>> quantitative_readout("Fc1ccc2c(N3CCN(CCCCn4nnc5ccccc54)CC3)noc2c1")
95
>>> quantitative_readout("Fc1ccc2c(N3CCN(CCCCn4nc5ccccc5n4)CC3)noc2c1")
99
>>> quantitative_readout("COc1cccc(OC)c1OCCNCC1COc2ccccc2O1 (stereo not given)")
87
>>> quantitative_readout("Fc1ccc2c(N3CCN(CCCn4nc5ccccc5n4)CC3)noc2c1")
65.1
>>> quantitative_readout("c1ccc2c(c1)nnn2CCCCN1CCN(c2noc3ccccc23)CC1")
99.2
>>> quantitative_readout("Fc1cccc(N2CCN(CCCCn3nnc4ccccc43)CC2)c1")
46.6
>>> quantitative_readout("Cc1nc2ccccc2n1CCCCN1CCN(c2cccc(C(F)(F)F)c2)CC1")
79.8
>>> quantitative_readout("Fc1ccc2c(N3CCN(CCCn4nnc5ccccc54)CC3)noc2c1")
86.2
>>> quantitative_readout("COc1cccc(N2CCN(CCCCn3cnc4ccccc43)CC2)c1")
55
>>> quantitative_readout("c1ccc2nn(CCCCN3CCN(c4noc5ccccc45)CC3)nc2c1")
94
>>> quantitative_readout("c1ccc2c(c1)nnn2OCCCN1CCN(c2nsc3ccccc23)CC1")
82.3
>>> quantitative_readout("Clc1cccc(N2CCN(CCCCn3nnc4ccccc43)CC2)c1")
74.2
>>> quantitative_readout("Fc1ccc2c(N3CCN(CCCCn4cnc5ccccc54)CC3)noc2c1")
100
>>> quantitative_readout("c1ccc2c(c1)ncn2CCCCN1CCN(c2nsc3ccccc23)CC1")
98.9
>>> quantitative_readout("Fc1ccc2c(C3CCN(CCCCn4nc5ccccc5n4)CC3)noc2c1")
99.9
>>> quantitative_readout("Clc1cccc(N2CCN(CCCCn3cnc4ccccc43)CC2)c1")
71.6
>>> quantitative_readout("Fc1ccc2c(N3CCN(CCCn4cnc5ccccc54)CC3)noc2c1")
98.4
>>> quantitative_readout("c1ccc2nn(CCCCN3CCN(c4nsc5ccccc45)CC3)nc2c1")
96.2
>>> quantitative_readout("Fc1ccc2c(C3CCN(CCCn4cnc5ccccc54)CC3)noc2c1")
97.5
>>> quantitative_readout("Fc1ccc2c(C3CCN(CCCn4nc5ccccc5n4)CC3)noc2c1")
83.2
>>> quantitative_readout("Fc1ccc2c(C3CCN(CCCCn4cnc5ccccc54)CC3)noc2c1")
100
